Tested on: epithelial breast carcinoma cell line (MDAMB-435)
Assay: Antiproliferative activity (growth inhibition, MTT), epithelial breast carcinoma cell line MDAMB-435
Assay type: cell-based
Settings: Homo sapiens, MDA-MB-435, 120 h, 5 days post drug addition, 0.1% DMSO, read-out: IC50 (growth inhibition of MDAMB-435 cells)
assayMetric: IC50 (nM)

P. Cn1nccc1-c1ccc2c(C3=C(c4cn(C)c5cc([N+](=O)[O-])ccc45)C(=O)NC3=O)cn(C)c2c1
Q. Cc1nccn1-c1ccc2c(C3=C(c4cn(C)c5cc([N+](=O)[O-])ccc45)C(=O)NC3=O)cn(C)c2c1
R. Cn1cc(C2=C(c3c[nH]c4cc(N5CCCC5)ccc34)C(=O)NC2=O)c2ccc([N+](=O)[O-])cc21 [Example 12h]
S. CCn1ccnc1-c1ccc2c(C3=C(c4cn(C)c5cc([N+](=O)[O-])ccc45)C(=O)NC3=O)cn(C)c2c1
Req: Order the 4 listed items from lowest to highest according to IC50. List the labels, following the order given in the request.
Resp: R, P, S, Q
(R: 2 nM, P: 20 nM, S: 120 nM, Q: 250 nM)

a. Cn1nccc1-c1ccc2c(C3=C(c4cn(C)c5ccccc45)C(=O)NC3=O)cn(C)c2c1
b. Cn1cc(C2=C(c3cn(C)c4cc([N+](=O)[O-])ccc34)C(=O)NC2=O)c2ccc(-c3nccs3)cc21
Req: Please tell me which of the two, a or b , has the higher reported IC50 value. Indicate your choice by writing its label.
Resp: a
(a: 250 nM, b: 20 nM)

----------
Test system: epithelial breast carcinoma cell line (MDAMB-435)
Experiment: Antiproliferative activity (growth inhibition, MTT), epithelial breast carcinoma cell line MDAMB-435
Format: cell-based
Conditions: Homo sapiens, MDA-MB-435, 120 h, 5 days post drug addition, 0.1% DMSO, read-out: IC50 (growth inhibition of MDAMB-435 cells)
pIC50: −log10 of the molar value.
assayMetric: pIC50

COc1ccc2c(C3=C(c4cn(C)c5cc(N6CCOCC6)ccc45)C(=O)NC3=O)cn(C)c2c1 [Example 14a] ... 7.70
Cn1cc(C2=C(c3cn(C)c4cc(-c5cccs5)ccc34)C(=O)NC2=O)c2ccccc21 ... 7.40
Cn1cc(C2=C(c3cn(C)c4cc(-c5ccsc5)ccc34)C(=O)NC2=O)c2ccccc21 ... 7.40

P. Cn1cc(C2=C(c3cn(C)c4cc(N5CCCC5)ccc34)C(=O)NC2=O)c2ccccc21 [Example 12j]
Q. COCn1cc(C2=C(c3cn(C)c4cc(F)ccc34)C(=O)NC2=O)c2ccc(N3CCOCC3)cc21 [Example 12m]
R. COCn1cc(C2=C(c3cn(C)c4cc([N+](=O)[O-])ccc34)C(=O)NC2=O)c2ccc(N3CCCC3)cc21 [Example 12g]
Req: rank_up(items): orders items by reported pIC50 in ascending numerical order. List the labels, following the order given in the request.
Resp: Q, P, R

----------
Test system: epithelial breast carcinoma cell line (MDAMB-435)
Test: Antiproliferative activity (growth inhibition, MTT), epithelial breast carcinoma cell line MDAMB-435
Assay type: cell-based
Settings: Homo sapiens, MDA-MB-435, 120 h, 5 days post drug addition, 0.1% DMSO, read-out: IC50 (growth inhibition of MDAMB-435 cells)
pIC50: −log10 of the molar value.
assayMetric: pIC50

Recorded pIC50, per entry:
Cn1cc(C2=C(c3cn(C)c4cc([N+](=O)[O-])ccc34)C(=O)NC2=O)c2ccc(OCCn3ccnc3)cc21 ... 7.15
Cn1cc(C2=C(c3cn(C)c4cc(N5CCOCC5)ccc34)C(=O)NC2=O)c2ccc(F)cc21 [Example 14b] ... 7.52
Cn1cc(C2=C(c3cn(C)c4cc([N+](=O)[O-])ccc34)C(=O)NC2=O)c2ccc(-c3ccns3)cc21 ... 8.00
Cn1cc(C2=C(c3cn(C)c4cc([N+](=O)[O-])ccc34)C(=O)NC2=O)c2ccc(-c3cccs3)cc21 ... 7.70
Cn1cc(C2=C(c3cn(C)c4cc(-n5cccn5)ccc34)C(=O)NC2=O)c2ccc(Br)cc21 ... 7.60
Cn1cc(C2=C(c3cn(C)c4cc([N+](=O)[O-])ccc34)C(=O)NC2=O)c2ccc(-c3ncc[nH]3)cc21 ... 7.40

1. Cn1cc(C2=C(c3cn(C)c4cc([N+](=O)[O-])ccc34)C(=O)NC2=O)c2ccc(-c3ccsc3)cc21
2. Cn1cc(C2=C(c3cn(C)c4cc(-c5cncnc5)ccc34)C(=O)NC2=O)c2ccccc21
Req: Please tell me which of the two, 1 or 2 , has the higher reported pIC50 value. Indicate your choice by writing its label.
Resp: 1
(1: 7.40, 2: 7.10)
